assay: NCI Yeast Anticancer Drug Screen. Data for the wt1 strain (AID 149);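 also: 0% = growth of vehicle-treated wt1 cultures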; details: S. cerevisiae wt1 strain (SPY 50644) growth inhibition; at 11.0 µM
The panel holds about 79,000 compounds, 15% with a hit somewhere; the sample as a whole holds those more often. The source made the active and inactive calls. Rule as the data show it: active = growth inhibition above about 70%; inactive = the rest.
# valid calls are active, inactive; nothing else

INPUT: Assay result, entry CCn1ncc(N=O)c1N — outcome?
OUTPUT: inactive

INPUT: Assay result, entry CCCc1[nH]nc(C(N)=O)c1N=NN(C)C — outcome?
OUTPUT: inactive

====

experiment: NCI Yeast Anticancer Drug Screen. Data for the bub3 strain (AID 167); conditions: S. cerevisiae bub3 mutant strain, at 100.0 µM, active compounds read high
About 79,000 compounds went through this panel and 15% of them were active in at least one assay; those are over-represented in the sample as a whole.
Catalogue of growth inhibition values
Express the result in % but write the number alone.

Would you please look over these solved cases?
# chemical-structure, property, numeric-result
records = [
    ("CCn1ncc(N=O)c1N", "growth inhibition", 78),
    ("c1ccc(N2N=C3N(c4ccccc4)C2N3c2ccccc2)cc1", "growth inhibition", 92),
    ("N#CC(=S)Nc1cccc(Cl)c1", "growth inhibition", 67),
]

Data point: Cc1ccc(S(=O)(=O)N(C)c2ccc(Cl)cc2C2=NCCc3ccccc32)cc1 ; growth inhibition = 95

Data point: Oc1ccc(C=Nc2ccccc2O)cc1 ; growth inhibition = 92

====

assay: NCI Yeast Anticancer Drug Screen. Data for the sgs1 mgt1 strain (AID 161);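 also: 0% = growth of cultures given vehicle only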; settings: S. cerevisiae sgs1 mgt1 strain, at 50.0 µM (retest, dose inferred, filed as 5.0)
This is part of a sample that, as a whole, favours compounds with a hit. Of some 79,000 tested, about 15% had one in any assay. Calls of active or inactive are those of the source. Cut-off read from the data, not from the text of the source: active = growth inhibition above about 70%; inactive = the rest.
# valid calls are active, inactive; nothing else

# compound, group-label
data = [
    ("Cc1ccc(Nc2c3c(c(C#N)c4nc5ccccc5n24)CCCC3)cc1", "inactive"),
]

INPUT: Assay result, entry CCC(=O)Oc1ccc(/C=N/NC(N)=S)nc1 — outcome?
OUTPUT: inactive

INPUT: Assay result, entry Nc1ccc(CCl)cc1Cc1c(O)ccc2ccccc12 — outcome?
OUTPUT: inactive

INPUT: Assay result, entry CCNc1ccc2c(c1)C(=O)N(OS(C)(=O)=O)C2=O — outcome?
OUTPUT: inactive

INPUT: Assay result, entry CCC(c1ccc(O)cc1)C(CC)c1ccc(OCCN)cc1 (stereo not drawn) — outcome?
OUTPUT: active

INPUT: Assay result, entry O=Nn1c2ccccc2c2ccccc21 — outcome?
OUTPUT: inactive

INPUT: Assay result, entry O=C(O)c1[nH]c(=O)c2ccccc2c1Nc1ccccc1 — outcome?
OUTPUT: inactive

INPUT: Assay result, entry COc1ccc(SCc2cc(OC)ccc2OC)cc1 — outcome?
OUTPUT: inactive

INPUT: Assay result, entry COc1ccc(N)c2c1C(=O)c1ccccc1C2=O — outcome?
OUTPUT: active

INPUT: Assay result, entry CCN(CC)N=Nc1c(C(N)=O)n[nH]c1C — outcome?
OUTPUT: inactive

INPUT: Assay result, entry CC(=O)C1=C(O)C2(C)c3c(O)c(C)c(O)c(C(C)=O)c3OC2(Sc2ccccc2)CC1=O (stereo not drawn) — outcome?
OUTPUT: active

INPUT: Assay result, entry Nc1nc2c(c(=O)[nH]1)NC(CCNc1ccc(C(=O)O)cc1)CN2 (stereo not drawn) — outcome?
OUTPUT: inactive

INPUT: Assay result, entry Cc1c2cc[n+](CCN3CCCCC3)cc2c(C)c2c1[nH]c1ccc(O)cc12 — outcome?
OUTPUT: inactive
